The reported numbers originate from patent US20220332795A1.

tested_on: T1, human CD71 extracellular domain (human, UniProt P02786 89-760, biotinylated)
T1 construct: extracellular domain; also called hCD71; huCD71 ECD
procedure_summary: solution ELISA screen, signal ratio to HSA control
property: hCD71:HSA (ratio)

SEQ ID NO 256 (designed binder, not shown: small tags and cut ends) MLPAPKNLVVSRVTEDSARLSWTAPDAAFDSFYIAYAEPRPDGEAIQLTVPGSERSYDLTGLKPGTEYSVLIHGVKGGLLSSPLHAYFTT | 27.2
SEQ ID NO 219 (designed binder, not shown: small tags and cut ends) MLPAPKNLVVSRVTEDSARLSWTAPDAAFDSFYIAYAEPRPDGEAISLKVPGSERSYDLTGLKPGTEYSVLIHGVKGGLLSSPLEAIFTT | 38.8

A. SEQ ID NO 242 (designed binder, not shown: small tags and cut ends) MLPAPKNLVVSRVTEDSARLSWTAPDAAFDSFYIAYAEPRPDGEAIQLLVPGSERSYDLTGLKPGTEYSVLIHGVKGGLLSSPLYAAFTT
B. SEQ ID NO 236 (designed binder, not shown: small tags and cut ends) MLPAPKNLVVSRVTEDSARLSWTAPDAAFDSFYIAYAEPRPDGEAILLQVPGSERSYDLTGLKPGTEYSVLIHGVKGGLLSSPLDAEFTT
query: Which entry has a larger number for hCD71:HSA, A or B ? Selection: enter the item's label.
result: B
(B: 262 ratio, A: 31.9 ratio)

1. SEQ ID NO 212 (designed binder, not shown: small tags and cut ends) MLPAPKNLVVSRVTEDSARLSWTAPDAAFDSFYIAYAEPRPDGEAIWLAVPGSERSYDLTGLKPGTEYSVLIHGVKGGLLSSPLHAQFTT
2. SEQ ID NO 265 (designed binder, not shown: small tags and cut ends) MLPAPKNLVVSRVTEDSARLSWTAPDAAFDSFYIAYAEPRPDGEAIVLEVPGSERSYDLTGLKPGTEYSVLIHGVKGGLLSSPLTASFTT
query: Hi there, can you help? I need to know whether 1 or 2 has lower measured hCD71:HSA. Response format: the label of the selected entry.
result: 1
